- Assayed target: different isoforms of the 14-3-3
- Assay method text: not stated (R18 isolated by phage display; Wang et al. 1999 cited)
Parameter measured: pKd
Give only the number. pKd is defined as minus log10 of concentration in molar units.

# lookup: pKd of PHCVPRDLSWLDLEANMCLP [R18 polypeptide (14-3-3 amphipathic groove binding antagonist)] 7.10
